All values here come from patent US9238656B2.

endpoint_label: melting point

Inquiry: Find the recorded melting point belonging to `CN(C)c1ccc(-c2nc3c(N[C@H]4[C@@H](C(N)=O)[C@@H]5C=C[C@H]4C5)c(Br)cnc3[nH]2)cc1` and report it.
Reply text: 264 to 265 °C

Inquiry: Find the recorded melting point belonging to `Cc1ccc(-c2nc3c(N[C@H]4[C@@H](C(N)=O)[C@@H]5C=C[C@H]4C5)c(Br)cnc3[nH]2)o1` and report it.
Reply text: 200 to 201 °C

Inquiry: Find the recorded melting point belonging to `CN(C)c1ccc(-c2nc3c(N[C@H]4[C@@H](C(N)=O)[C@@H]5C=C[C@H]4C5)ccnc3[nH]2)cc1` and report it.
Reply text: 245 to 251 °C

Inquiry: Find the recorded melting point belonging to `COC[C@H](O)CN1CCC(c2ccc(-c3nc4c(N[C@H]5[C@@H](C(N)=O)[C@@H]6C=C[C@H]5C6)c(Cl)cnc4[nH]3)c(OC)c2)CC1` and report it.
Reply text: 116 to 122 °C

Inquiry: Find the recorded melting point belonging to `CN1CCN(Cc2ccc(-c3nc4c(N[C@H]5[C@@H](C(N)=O)[C@@H]6C=C[C@H]5C6)c(Br)cnc4[nH]3)cc2)CC1` and report it.
Reply text: 208 to 209 °C

Inquiry: Find the recorded melting point belonging to `Cn1cc(-c2nc3c(N[C@H]4[C@@H](C(N)=O)[C@@H]5C=C[C@H]4C5)c(Br)cnc3[nH]2)cn1` and report it.
Reply text: 255 to 258 °C
